assay: UV-Vis pH-metric spectrophotometric titration, protonation constants (HypSpec); format: physicochemical; settings: aqueous solution with <2% v/v methanol, 298 K; logβ11 (MPY1, MPY3) or logβ12 − logβ11 (PY1); read-out: pKa2
reported_metric: pKa

{"mol": "COc1cc(/C=C/c2cc(/C=C/c3ccc(O)c(OC)c3)nc(N)n2)ccc1O", "experimental_value": 9.04}
{"mol": "COc1cc(/C=C/c2cc(C)nc(N)n2)ccc1O", "experimental_value": 8.99}
{"mol": "COc1cc(/C=C/c2cc(C)nc(N)n2)ccc1OCCCN", "experimental_value": 8.62}

====

test: UV-Vis pH-metric spectrophotometric titration, protonation constants (HypSpec); assay type: physicochemical; details: aqueous solution with <2% v/v methanol, 298 K; logβ12 − logβ11 (MPY1, MPY3) or logβ13 − logβ12 (PY1); read-out: pKa1
reported_metric: pKa

{"compound": "COc1cc(/C=C/c2cc(C)nc(N)n2)ccc1OCCCN [MPY3]", "reported_metric": "pKa", "experimental_value": 4.43}
{"compound": "COc1cc(/C=C/c2cc(/C=C/c3ccc(O)c(OC)c3)nc(N)n2)ccc1O [PY1]", "reported_metric": "pKa", "experimental_value": 4.86}
{"compound": "COc1cc(/C=C/c2cc(C)nc(N)n2)ccc1O [MPY1]", "reported_metric": "pKa", "experimental_value": 4.73}

====

assay: UV-Vis pH-metric spectrophotometric titration, protonation constants (HypSpec); assay type: physicochemical; conditions: aqueous solution with <2% v/v methanol, 298 K; pKa3 = logβ11; read-out: pKa3
reported_metric: pKa
Give only the figure.

Prompt: Answer with the recorded pKa of "COc1cc(/C=C/c2cc(/C=C/c3ccc(O)c(OC)c3)nc(N)n2)ccc1O" only.
Completion: 10.3
